Source of measurements: patent US5498522A

methodNotes: tolerated dose / host toxicity in xenograft-bearing mice
conditionNotes: mouse, in vivo, every 8 hours for 6 days, read-out: tolerated dose (higher doses were toxic)
observedProperty: MTD at 144 h (mg/kg)
One number for each entry, in mg/kg.

Below, 2 compounds whose answers are already recorded.
1) CCNCCCNCCCNCCCNCC [BENSPM, N^1,N^11 -bis(ethyl)norspermine] : 80
2) CCNCCCNCCCCNCCCNCC [BESPM, N^1,N^12-bis(ethyl)spermine] : 20

Could you now look at the following compound, please?
Measured MTD at 144 h, CCNCCCCNCCCCNCCCCNCC [BEHSPM, N^1,N^14 -bis(ethyl)homospermine] : 6
